- target entity: Human recombinant OX2 receptors (Homo sapiens)
- Sequence (O43614 1-444): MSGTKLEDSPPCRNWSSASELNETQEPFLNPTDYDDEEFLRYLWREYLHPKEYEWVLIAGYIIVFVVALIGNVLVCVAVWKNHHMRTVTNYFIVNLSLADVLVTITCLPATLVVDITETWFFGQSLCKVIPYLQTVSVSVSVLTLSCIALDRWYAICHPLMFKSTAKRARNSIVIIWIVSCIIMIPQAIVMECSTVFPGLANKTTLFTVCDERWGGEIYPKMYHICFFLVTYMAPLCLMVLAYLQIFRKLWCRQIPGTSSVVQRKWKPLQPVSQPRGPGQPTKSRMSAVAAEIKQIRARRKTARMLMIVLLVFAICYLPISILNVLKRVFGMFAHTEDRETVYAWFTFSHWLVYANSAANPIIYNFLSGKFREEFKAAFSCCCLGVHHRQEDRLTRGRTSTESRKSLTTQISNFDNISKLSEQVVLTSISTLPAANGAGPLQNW
- experiment description: Human Orexin GPCR Binding (Agonist Radioligand) Assay, [125I] Orexin A competition
- condition description: radioligand competition binding assay; read-out: IC50 (nM) OXR2
- Procedure: Radioligand competition binding assays were performed by Panlabs, Eurofins Pharma Discovery Services. Briefly, human recombinant orexin OX1 receptors expressed in CHO-S cells were used in modified HEPES buffer pH 7.4. […] Orexin A for 60 minutes at 25 °C. […] Orexin A specifically binding. Human recombinant OX2 receptors were used in modified HEPES buffer pH 7.4. […] Orexin A for 180 minutes at 25 °C. […] Orexin A specifically bound.
measured property: IC50 (nM)
Numbers only; they are read as nM.

INPUT: Provide IC50, tested on Human recombinant OX2 receptors (Homo sapiens), for COc1ccnc(N2CCC3(CCCN(Cc4c[nH]c5ccccc45)C3=O)CC2)n1 [IPSU, reference compound] .
OUTPUT: 3130
